TARGET: human CXCR4 receptor (wild type) (human, UniProt P61073 1-352)
Sequence (P61073 whole entry): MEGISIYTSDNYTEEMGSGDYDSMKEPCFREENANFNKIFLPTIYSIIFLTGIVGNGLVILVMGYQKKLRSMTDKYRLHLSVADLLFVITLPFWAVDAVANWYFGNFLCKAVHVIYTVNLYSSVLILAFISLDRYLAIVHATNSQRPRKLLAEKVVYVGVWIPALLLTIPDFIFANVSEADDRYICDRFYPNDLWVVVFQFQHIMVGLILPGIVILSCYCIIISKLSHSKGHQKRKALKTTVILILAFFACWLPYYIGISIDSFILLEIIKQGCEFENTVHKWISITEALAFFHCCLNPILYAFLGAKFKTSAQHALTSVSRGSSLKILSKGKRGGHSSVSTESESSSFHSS
METHOD: cell-based or functional assay
Reported values of % of inhibition of [35S]GTPγS binding stimulated by SDF-1 (100 nM) for individual entries
MEASUREMENT_LABEL: % of inhibition of [35S]GTPγS binding stimulated by SDF-1 (100 nM) (%)

[
  {
    "BINDER": "humanized antibody Hz515H7 VH1 D76N VL2.2 (antibody, human IgG1, kappa, V domains shown) VH: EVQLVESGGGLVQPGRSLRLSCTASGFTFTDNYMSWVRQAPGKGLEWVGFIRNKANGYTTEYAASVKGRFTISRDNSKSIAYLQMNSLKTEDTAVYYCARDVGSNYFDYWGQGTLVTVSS VL: DIVMTQSPDSLAVSLGERATMSCKSSQSLFNSRTRKNYLAWYQQKPGQPPKLLIYWASARDSGVPDRFTGSGSETYFTLTISRVQAEDVAVYYCMQSFNLRTFGQGTKVEIKR",
    "REPORTED_MEASUREMENT": 66
  },
  {
    "BINDER": "humanized antibody Hz515H7 VH1 D76N VL2.3 (antibody, human IgG1, kappa, V domains shown) VH: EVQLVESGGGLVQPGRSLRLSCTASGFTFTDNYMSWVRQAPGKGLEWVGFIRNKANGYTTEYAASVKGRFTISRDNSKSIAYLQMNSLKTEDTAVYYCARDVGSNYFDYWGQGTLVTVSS VL: DIVMTQSPDSLAVSLGERATMSCKSSQSLFNSRTRKNYLAWYQQKPGQPPKLLIYWASARDSGVPDRFTGSGSETYFTLTISSLQAEDLAVYYCMQSFNLRTFGQGTKVEIKR",
    "REPORTED_MEASUREMENT": 58
  },
  {
    "BINDER": "anti-CXCR4 Mab 515H7 (antibody, V domains shown) VH: EVNLVESGGGLVQPGGSLRLSCATSGFTFTDNYMSWVRQPPGKALEWLGFIRNKANGYTTDYSASVRGRFTISRDNSQSILYLQMNALRAEDSATYYCARDVGSNYFDYWGQGTTLTVSS VL: DIVMSQSPSSLAVSAGEKVTMSCKSSQSLFNSRTRKNYLAWYQQKPGQSPKLLIYWASARDSGVPARFTGSGSETYFTLTISRVQAEDLAVYYCMQSFNLRTFGGGTKLEIK",
    "REPORTED_MEASUREMENT": 71
  },
  {
    "BINDER": "anti-CXCR4 chimeric Mab c515H7 (antibody, human IgG1, kappa, V domains shown, they may be whole chains; also called chimeric 515H7) VH: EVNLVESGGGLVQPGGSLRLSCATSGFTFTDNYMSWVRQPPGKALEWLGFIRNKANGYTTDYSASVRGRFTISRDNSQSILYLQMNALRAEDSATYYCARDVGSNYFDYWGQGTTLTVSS VL: DIVMSQSPSSLAVSAGEKVTMSCKSSQSLFNSRTRKNYLAWYQQKPGQSPKLLIYWASARDSGVPARFTGSGSETYFTLTISRVQAEDLAVYYCMQSFNLRTFGGGTKLEIKR",
    "REPORTED_MEASUREMENT": 71
  }
]

Numbers sourced from patent US20110020218A1.
